assay: qHTS assay to identify small molecule antagonists of the sonic hedgehog signaling (Shh) pathway - cell viability counter screen (AID 1259367); conditions: NIH/3T3 Gli1-Luc viability, CellTiter-Fluor, 24 h; series mostly up to 42.5 µM; also: nearly all actives have a fitted effect of over 55% in size
Records with an inconclusive call do not appear. Activity calls are given as the source filed them. Calls follow the shape of the dose curve; as a rule, active = well fitted cell-killing curve with a large enough effect in the repeat runs; inconclusive = weak or mixed curves, or effect the other way; inactive = no such curve, though single readings can be large or run the other way.
Classes to choose from: T (active), F (inactive)

| compound | label |
| --- | --- |
| COc1ccc(-c2ccc3cc(C(=O)O)ccc3c2)cc1C12CC3CC(CC(C3)C1)C2 | F |
| O=C(NOCC1CC1)c1ccc(F)c(F)c1Nc1ccc(I)cc1Cl | F |

Query: Tell me the recorded outcome of this test for CCCCCCCCCCCCCCCS(=O)(=O)Oc1ccccc1 .
Result: F

Query: Tell me the recorded outcome of this test for NC(=O)C1(N2CCCCC2)CCN(CCCN2c3ccccc3CCc3ccc(Cl)cc32)CC1 .
Result: T

Query: Tell me the recorded outcome of this test for O=C(N/N=C/c1ccccc1O)c1ccncc1 .
Result: F

Query: Tell me the recorded outcome of this test for O=C1c2c(O)ccc(Nc3ccc(CCO)cc3)c2C(=O)c2c([N+](=O)[O-])ccc(O)c21 .
Result: T

Query: Tell me the recorded outcome of this test for Cc1cc(C2CCCCC2)n(O)c(=O)c1 .
Result: T

Query: Tell me the recorded outcome of this test for C=CC(=O)OCC(CO)(COCC(COC(=O)C=C)(COC(=O)C=C)COC(=O)C=C)COC(=O)C=C .
Result: T

Query: Tell me the recorded outcome of this test for O=c1[nH]sc2ccccc12 .
Result: T

Query: Tell me the recorded outcome of this test for CCCCCCCCCOC(=O)c1ccc(O)cc1 .
Result: F

Query: Tell me the recorded outcome of this test for CCC(C)Nc1ccc(NC(C)CC)cc1 (configuration not stated) .
Result: T

Query: Tell me the recorded outcome of this test for Oc1cc2ccccc2c2ccccc12 .
Result: T

----------
molecular target: Aryl hydrocarbon receptor (Homo sapiens) (UniProt P35869); experiment: qHTS assay to identify small molecule that activate the aryl hydrocarbon receptor (AhR) signaling pathway (AID 743085); details: HepG2 AhR-luc (HG2L7.5c1), luciferase, 24 h; series mostly up to 70.3 µM; also: nearly all actives have a fitted effect of over 15% in size;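 as to activation: HG2L7.5c1 human HepG2 liver cells with stably integrated DRE-driven firefly reporter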
Sequence (P35869 whole entry, looked up): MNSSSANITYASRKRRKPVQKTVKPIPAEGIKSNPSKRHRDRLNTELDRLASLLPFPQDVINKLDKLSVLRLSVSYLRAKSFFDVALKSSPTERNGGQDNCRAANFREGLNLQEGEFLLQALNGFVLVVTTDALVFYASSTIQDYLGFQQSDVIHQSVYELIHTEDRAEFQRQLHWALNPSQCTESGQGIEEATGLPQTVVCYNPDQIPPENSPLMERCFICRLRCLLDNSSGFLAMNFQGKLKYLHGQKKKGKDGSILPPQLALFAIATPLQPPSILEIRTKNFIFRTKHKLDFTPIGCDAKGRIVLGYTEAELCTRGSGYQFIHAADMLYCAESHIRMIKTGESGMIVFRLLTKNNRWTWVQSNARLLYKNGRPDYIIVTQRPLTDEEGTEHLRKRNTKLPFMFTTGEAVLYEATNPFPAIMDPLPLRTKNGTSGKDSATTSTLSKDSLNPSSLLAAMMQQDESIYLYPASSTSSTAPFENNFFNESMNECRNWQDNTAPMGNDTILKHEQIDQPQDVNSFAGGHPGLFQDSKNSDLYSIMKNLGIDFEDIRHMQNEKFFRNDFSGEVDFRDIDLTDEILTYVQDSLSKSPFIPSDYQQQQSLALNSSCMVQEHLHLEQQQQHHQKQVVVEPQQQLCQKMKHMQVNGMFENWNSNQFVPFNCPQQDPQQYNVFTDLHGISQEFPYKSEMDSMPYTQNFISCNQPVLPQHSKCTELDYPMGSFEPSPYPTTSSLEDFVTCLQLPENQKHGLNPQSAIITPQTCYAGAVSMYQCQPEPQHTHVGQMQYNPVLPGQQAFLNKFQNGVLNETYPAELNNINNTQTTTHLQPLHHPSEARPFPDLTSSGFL
Results filed as inconclusive are left out. Active and inactive are the calls of the source. Calls follow the shape of the dose curve; as a rule, active = well fitted activation curve with a large enough effect in the repeat runs; inconclusive = weak or mixed curves; inactive = no such curve, though single readings can be large or run the other way.
Classes to choose from: 1 for active, 0 for inactive

Below, 5 compounds whose answers are already recorded.
| compound | label |
| --- | --- |
| C=CC(=O)OCC(CO)(COC(=O)C=C)COC(=O)C=C | 0 |
| Oc1ccc2cc(SSc3ccc4cc(O)ccc4c3)ccc2c1 | 0 |
| COC(=O)C1=C(C)NC(C)=C(C(=O)OCC(C)C)C1c1ccccc1[N+](=O)[O-] (stereo unspecified) | 1 |
| CCCCCCCCCOC(=O)c1ccc(O)cc1 | 0 |
| Oc1cccc(-c2c3nc(c(-c4cccc(O)c4)c4ccc([nH]4)c(-c4cccc(O)c4)c4nc(c(-c5cccc(O)c5)c5ccc2[nH]5)CC4)C=C3)c1 | 0 |

Query: Tell me the recorded outcome of this test for CCN1/C(=C/C=C/c2sc3ccccc3[n+]2CC)Sc2ccccc21 .
Result: 1

----------
test: qHTS assay to identify small molecule antagonists of the peroxisome proliferator-activated receptor gamma (PPARg) signaling pathway - cell viability counter screen (AID 743194); conditions: PPARg-bla HEK293H viability, CellTiter-Glo luminescence, 17 h, co-treated with 50 nM rosiglitazone; series mostly up to 62.6 µM; also: nearly all actives have a fitted effect of over 55% in size
Results filed as inconclusive are left out. Calls of active or inactive are those of the source. Calls follow the shape of the dose curve; as a rule, active = well fitted cell-killing curve with a large enough effect in the repeat runs; inconclusive = weak or mixed curves, or effect the other way; inactive = no such curve, though single readings can be large or run the other way.
Classes to choose from: active, inactive

Below, 5 compounds whose answers are already recorded.
| compound | label |
| --- | --- |
| CC[C@H]1O[C@]2(CC[C@@H]1C)C[C@@H]1C[C@@H](C/C=C(\C)C[C@@H](C)/C=C/C=C3\CO[C@@H]4[C@H](O)C(C)=C[C@@H](C(=O)O1)[C@]34O)O2 | active |
| Cc1cc(N)c(S(=O)(=O)O)cc1Cl | inactive |
| ON=C1CCCC1 | inactive |
| Nc1ccc(N)c2ccccc12 | active |
| CC(C)(C)C(=O)OCOC(=O)[C@@H]1N2C(=O)[C@@H](NC(=O)[C@H](N)c3ccccc3)[C@H]2SC1(C)C | inactive |

Query: Tell me the recorded outcome of this test for CCCCC(CC)COP(=O)(O)OCC(CC)CCCC (stereo unspecified) .
Result: inactive

Query: Tell me the recorded outcome of this test for Clc1ccccc1C(c1ccccc1)(c1ccccc1)n1ccnc1 .
Result: active

Query: Tell me the recorded outcome of this test for CCC(CN)=C(c1ccccc1)c1ccccc1 .
Result: inactive

Query: Tell me the recorded outcome of this test for CC1=NC(C)OC1C (stereo unspecified) .
Result: inactive

Query: Tell me the recorded outcome of this test for Cc1cccc2c1cc1ccc3cccc4ccc2c1c34 .
Result: inactive

Query: Tell me the recorded outcome of this test for O=C(NOCC1CC1)c1ccc(F)c(F)c1Nc1ccc(I)cc1Cl .
Result: active

----------
biological target: Thyrotropin receptor (Homo sapiens); assay: qHTS assay to identify small molecule antagonists of the thyroid stimulating hormone receptor (TSHR) signaling pathway (AID 1259385); details: TSHR-HEK293 cAMP HTRF, TSH-stimulated antagonist mode; series mostly up to 92.4 µM; also: nearly all actives have a fitted effect of over 20% in size
Inconclusive results are not listed. Activity calls are given as the source filed them. The call rests on the fitted dose curve.
Classes to choose from: yes (1) = active, no (0) = inactive

Below, 5 molecules whose answers are already recorded.
| molecule | assayed-system | label |
| --- | --- | --- |
| C[C@H]1[C@H]2CC[C@H]3[C@@H]4CC=C5C[C@@H](N(C)C)CC[C@]5(C)[C@H]4CC[C@]23CN1C | Thyrotropin receptor (Homo sapiens) | no (0) |
| O=C(O)c1ccc(Cl)c(Cl)c1 | Thyrotropin receptor (Homo sapiens) | no (0) |
| COc1cccc(N)c1 | Thyrotropin receptor (Homo sapiens) | no (0) |
| On1ccccc1=S | Thyrotropin receptor (Homo sapiens) | no (0) |
| C[n+]1ccn(Cc2ccccc2)c1 | Thyrotropin receptor (Homo sapiens) | no (0) |

Query: Tell me the recorded outcome of this test for CC(C)(C)c1ccc(C(=O)O)cc1 .
Result: no (0)

Query: Tell me the recorded outcome of this test for CCCCCCCCCCCCCCCS(=O)(=O)Oc1ccccc1 .
Result: no (0)

Query: Tell me the recorded outcome of this test for Nc1c2ccccc2nc2ccccc12 .
Result: no (0)

Query: Tell me the recorded outcome of this test for Oc1cccc2cc3cccc(O)c3c(O)c12 .
Result: no (0)

----------
test: qHTS assay for identifying genotoxic compounds that show differential cytotoxicity against isogenic chicken DT40 cell lines with known DNA damage response pathways - wild type cell line (AID 743012); details: DT40 wild type chicken cells viability, CellTiter-Glo, 40 h; series mostly up to 68.4 µM; also: nearly all actives have a fitted effect of over 60% in size
Records with an inconclusive call do not appear. Calls of active or inactive are those of the source. The call rests on the fitted dose curve; in most records, active means well fitted cell-killing curve with a large enough effect in the repeat runs; inconclusive means weak or mixed curves, or effect the other way; inactive means no such curve, though single readings can be large or run the other way.
Classes to choose from: active, inactive

Below, 5 compounds whose answers are already recorded.
| compound | label |
| --- | --- |
| O=C1c2ccccc2Cc2ccccc21 | inactive |
| Clc1ccc2n[nH]nc2c1 | inactive |
| CCCCN1C(=O)[C@@H]([C@H](O)C2CCCCC2)NC(=O)C12CCN(Cc1ccc(Oc3ccc(C(=O)O)cc3)cc1)CC2 | active |
| Nc1ccccc1O | active |
| Nc1c(Cl)cc(Cl)cc1Cl | inactive |

Query: Tell me the recorded outcome of this test for C=C(C)C(=O)OCC(O)COc1ccc(C(C)(C)c2ccc(OCC(O)COC(=O)C(=C)C)cc2)cc1 (stereo unspecified) .
Result: active

Query: Tell me the recorded outcome of this test for O=C(c1ccc(O)cc1O)c1ccc(O)cc1O .
Result: inactive

Query: Tell me the recorded outcome of this test for c1cc(C(c2ccc(OCC3CO3)cc2)c2ccc(OCC3CO3)cc2)ccc1OCC1CO1 (stereo unspecified) .
Result: active

----------
Assay: qHTS assay to identify small molecule antagonists of the glucocorticoid receptor (GR) signaling pathway - cell viability counter screen (AID 720693); also: nearly all actives have a fitted effect of over 55% in size
Conditions: GR-bla HeLa viability, CellTiter-Glo luminescence, 18 h, with 5 nM dexamethasone present; series mostly up to 58.5 µM
From the text: National Center for Advancing Translational Sciences [NCATS] NIH Chemical Genomics Center [NCGC] U.S. Environmental Protection Agency [EPA] National Institutes of Environmental Health Sciences [NIEHS] National Toxicology Program [NTP] U.S. Food and Drug Administration [FDA] The Glucocorticoid receptor (GR) is one of the members of the nuclear receptor family of ligand-dependent transcription factors. […] The activation of the reporter gene under culture conditions can be detected by fluorescence intensity. […]
Results filed as inconclusive are left out. The source made the active and inactive calls. Calls come from the whole dose curve; as a rule, active = well fitted cell-killing curve with a large enough effect in the repeat runs; inconclusive = weak or mixed curves, or effect the other way; inactive = no such curve, though single readings can be large or run the other way.
Classes to choose from: active, inactive

Below, 6 molecules whose answers are already recorded.
| molecule | label |
| --- | --- |
| CCN(CC)CCCC(C)Nc1c2ccc(Cl)cc2nc2ccc(OC)cc12 (stereo not drawn) | inactive |
| Cc1c(C)c2c(c(C)c1OC(=O)CCC(=O)O)CC[C@@](C)(CCC[C@H](C)CCC[C@H](C)CCCC(C)C)O2 | active |
| Cc1nc(-c2ccc3c(c2)CCN(CCC2CCC(NC(=O)/C=C/c4ccc(F)cc4)CC2)CC3)no1 (stereo not drawn) | inactive |
| O=C1CCCCCN1SSN1CCCCCC1=O | inactive |
| O=c1[nH]cnc2nc[nH]c12 | inactive |
| CCC1OCC(COc2ccc(Oc3ccccc3)cc2)O1 (stereo not drawn) | inactive |

Query: Tell me the recorded outcome of this test for Oc1ccc2c(c1)-c1ccccc1C2 .
Result: inactive

Query: Tell me the recorded outcome of this test for CCCCCCCCCCCCCCCCCC[N+](C)(C)C .
Result: active

Query: Tell me the recorded outcome of this test for NNC(=O)c1cccc(C(=O)NN)c1 .
Result: inactive

Query: Tell me the recorded outcome of this test for CC(NN)c1ccccc1 (stereo not drawn) .
Result: inactive

Query: Tell me the recorded outcome of this test for CCCN(CCC)C(=O)C(CCC(=O)OCCCN1CCN(CCOC(=O)Cc2c(C)n(C(=O)c3ccc(Cl)cc3)c3ccc(OC)cc23)CC1)NC(=O)c1ccccc1 (stereo not drawn) .
Result: inactive

Query: Tell me the recorded outcome of this test for CCC(N)(CO)CO .
Result: inactive

Query: Tell me the recorded outcome of this test for O=[N+]([O-])c1cc(Cl)c(Cl)c(Cl)c1Cl .
Result: inactive

Query: Tell me the recorded outcome of this test for CCCC1O[C@@H]2C[C@H]3[C@@H]4CCC5=CC(=O)C=C[C@]5(C)[C@H]4[C@@H](O)C[C@]3(C)[C@]2(C(=O)CO)O1 (stereo partly drawn) .
Result: inactive

Query: Tell me the recorded outcome of this test for CCCCCCCC/C=C\CCCCCCCCOCCO .
Result: active

Query: Tell me the recorded outcome of this test for COc1cc(/C=C/C(=O)O[C@H]2CC[C@]34C[C@]35CC[C@]3(C)[C@@H]([C@H](C)CCC=C(C)C)CC[C@@]3(C)[C@@H]5CC[C@H]4C2(C)C)ccc1O .
Result: inactive

Query: Tell me the recorded outcome of this test for CNc1ccc(O)cc1 .
Result: active

Query: Tell me the recorded outcome of this test for COc1ccc(C(=O)/C(Br)=C\C(=O)O)cc1 .
Result: inactive

Query: Tell me the recorded outcome of this test for O=C1CCCc2c1cc1ccc3cccc4ccc2c1c34 .
Result: inactive

Query: Tell me the recorded outcome of this test for Cc1[nH]cnc1C[C@H]1CCc2c(C)c3ccccc3n2C1=O .
Result: inactive

Query: Tell me the recorded outcome of this test for C[C@H](CCC(=O)O)[C@H]1CC[C@H]2[C@@H]3CC[C@@H]4C[C@H](O)CC[C@]4(C)[C@H]3CC[C@]12C .
Result: inactive

Query: Tell me the recorded outcome of this test for CCCCCCCCCCCCCC[P+](CCCC)(CCCC)CCCC (tested in a mixture with another compound) .
Result: active

Query: Tell me the recorded outcome of this test for N/C(=N\N=C\c1ccc(Cl)cc1)N/N=C/c1ccc(Cl)cc1 .
Result: inactive

Query: Tell me the recorded outcome of this test for Cc1cc2c(cc1C(F)(F)F)N(C(=O)Nc1ccc(Oc3cccnc3C)nc1)CC2 .
Result: inactive

Query: Tell me the recorded outcome of this test for O=C1c2c(O)ccc(Nc3ccc(CCO)cc3)c2C(=O)c2c([N+](=O)[O-])ccc(O)c21 .
Result: inactive

Query: Tell me the recorded outcome of this test for CCCC(C)c1ccccc1O (stereo not drawn) .
Result: inactive

Query: Tell me the recorded outcome of this test for CCN(C(=O)N(CC)c1ccccc1)c1ccccc1 .
Result: inactive

Query: Tell me the recorded outcome of this test for COCCCC/C(=N\OCCN)c1ccc(C(F)(F)F)cc1 .
Result: inactive

Query: Tell me the recorded outcome of this test for O=C(OC[C@H]1O[C@@H](OC(=O)c2cc(O)c(O)c(OC(=O)c3cc(O)c(O)c(O)c3)c2)[C@H](OC(=O)c2cc(O)c(O)c(OC(=O)c3cc(O)c(O)c(O)c3)c2)[C@@H](OC(=O)c2cc(O)c(O)c(OC(=O)c3cc(O)c(O)c(O)c3)c2)[C@@H]1OC(=O)c1cc(O)c(O)c(OC(=O)c2cc(O)c(O)c(O)c2)c1)c1cc(O)c(O)c(OC(=O)c2cc(O)c(O)c(O)c2)c1 .
Result: active
